B1: PCMTD2 (parent)
chain: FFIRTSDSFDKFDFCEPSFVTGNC

variants of: B1; test: protein stability index of a GFP-peptide fusion (GPS, HEK-293T) (PSI 1-6); higher = more stable; settings: c terminus: a fixed tail appended;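 note: lentivirally expressed fusions sorted by FACS into six bins by GFP to DsRed ratio, PSI derived from sequencing read proportions per bin multiplied by bin number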
Criterion: protein stability index meeting or surpassing 2. Met: satisfied. Not met: not satisfied.

C24H; satisfied

Query :: Test whether the variant N23H records protein stability index of 2 or higher.
Result :: satisfied

Query :: What do you get for R4L ?
Result :: satisfied

Query :: What do you get for V20P ?
Result :: not satisfied
